Target: X-box-binding protein 1 (Homo sapiens)
Test: ATG_Xbp1_CIS: Attagene CIS-FACTORIAL HepG2 Assay for human X-box Binding Protein 1 (XBP1) (AID 2282972)
Settings: HepG2 XBP1 cis-element reporter, Attagene multiplex; actives raise or lower the signal
Procedure: ATG_CIS is a cell-based, multiplexed-readout assay that uses HepG2, a human liver cell line, with measurements taken at 24 hours after chemical dosing in a 24-well plate.ATG_Xbp1_CIS is one of 52 assay component(s) measured or calculated from the ATG_CIS assay. […] This assay endpoint, ATG_Xbp1_CIS, was analyzed with bidirectional fitting relative to DMSO as the negative control and baseline of activity. […]
Calls of active or inactive are those of the source. The calls were made as follows: active = hit-call score of the fitted dose curve at least 0.9, where 1 is the maximum; inactive = score below 0.9.
Entry note: the call must match one of 1 (yes) (active), 0 (no) (inactive)

Known results for compounds:
>  <compound>
C/C=C/C(=O)C1=C(C)CCCC1(C)C

>  <label>
1 (yes)

$$$$
>  <compound>
O=C(Nc1cccc([N+](=O)[O-])c1)c1cc2ccccc2cc1O

>  <label>
0 (no)

$$$$
>  <compound>
CCN(CCC#N)c1ccccc1

>  <label>
0 (no)

$$$$
>  <compound>
CCOC=C(C(=O)OCC)C(=O)OCC

>  <label>
0 (no)

$$$$
>  <compound>
O=C1NS(=O)(=O)c2ccccc21

>  <label>
0 (no)

$$$$
>  <compound>
CNNCc1ccc(C(=O)NC(C)C)cc1

>  <label>
0 (no)

$$$$
>  <compound>
O=C1c2ccc(O)c(O)c2C(=O)c2c(O)ccc(O)c21

>  <label>
0 (no)

$$$$
>  <compound>
Cc1cc(C(=C2C=CC(=Nc3ccc(S(=O)(=O)O)cc3)C=C2)c2ccc(Nc3ccc(S(=O)(=O)O)cc3)cc2)cc(S(=O)(=O)O)c1N

>  <label>
0 (no)

$$$$
>  <compound>
Cc1cc(=O)oc2cc(O)ccc12

>  <label>
0 (no)

$$$$
>  <compound>
CC1CNCC(C)O1 (configuration not stated)

>  <label>
0 (no)

$$$$

Just curious, what result did Cc1[nH]nc2c1N=C(c1ccccc1Cl)c1cc([N+](=O)[O-])ccc1N2 get here?
0 (no)

Name the outcome recorded for CCCCCCCCCCCCCCCCCC[N+](C)(C)Cc1ccccc1 in the assay.
0 (no)

---

Test: BSK_4H_SRB: Viability Assessment in the BioMAP Diversity Plus: 4H Assay (AID 2283027);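 also: cells exposed to compound for 24 h before staining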
Details: primary human endothelial cells (HUVEC)
Description: BSK_4H is a cell-based, multiplexed-readout assay that uses umbilical vein endothelium, a human vascular primary cell, with measurements taken at 24 hours after chemical dosing in a 96-well plate.BSK_4H_SRB is an assay component measured in the BSK_4H assay. It measures […] related to cell death using Sulforhodamine staining technology.Data from the assay component BSK_4H_SRB was analyzed into 1 assay endpoint. […]
The source made the active and inactive calls. The calls were made as follows: active = hit-call score of the fitted dose curve at least 0.9, where 1 is the maximum; inactive = score below 0.9.
Hi! Could you answer with just one of these? T (active), F (inactive)

As a guide, the following entries are already answered.
>  <molecule>
CCC(C)c1ccccc1O (stereo not drawn)

>  <label>
F

$$$$
>  <molecule>
O=C1OC2(c3ccccc31)c1cc(I)c(O)c(I)c1Oc1c2cc(I)c(O)c1I

>  <label>
F

$$$$
>  <molecule>
Cc1[nH]nc2c1N=C(c1ccccc1Cl)c1cc([N+](=O)[O-])ccc1N2

>  <label>
T

$$$$

Fill in: this test's call for CCCCCCCCCCCCCCC is ___
F

Please indicate how the test categorized CCCCCCCCCCCCOS(=O)(=O)O .
F

---

Test: ATG_FoxO_CIS: Attagene CIS-FACTORIAL HepG2 Assay for human Forkhead box O (FoxO) (AID 2282943)
Conditions: HepG2 Attagene cis-reporter, FoxO element, mRNA; actives raise or lower the signal
Activity calls are given as the source filed them. How the source made its calls: active means hit-call score of the fitted dose curve at least 0.9, where 1 is the maximum; inactive means score below 0.9.
Use one of these outcomes when replying: 1.0 for active, 0.0 for inactive

>  <compound>
O=C1OC2(c3ccccc31)c1cc(I)c(O)c(I)c1Oc1c2cc(I)c(O)c1I

>  <label>
0.0

$$$$
>  <compound>
O=C(c1cc(O)c(O)c(O)c1)c1ccc(O)c(O)c1O

>  <label>
0.0

$$$$
>  <compound>
Oc1ccc(Cc2ccccc2O)cc1

>  <label>
0.0

$$$$
>  <compound>
CC(C)(C)c1ccc(O)c(O)c1

>  <label>
0.0

$$$$
>  <compound>
Oc1c(Cl)cc(Cl)cc1Sc1cc(Cl)cc(Cl)c1O

>  <label>
0.0

$$$$
>  <compound>
CCCCCCCCCCCCCC[n+]1ccccc1

>  <label>
0.0

$$$$
>  <compound>
O=C1c2ccccc2C(=O)c2c(O)c(O)cc(O)c21

>  <label>
0.0

$$$$
>  <compound>
Cc1ccccc1OCC(=O)O

>  <label>
0.0

$$$$
>  <compound>
Cc1cncc(C)c1

>  <label>
0.0

$$$$
>  <compound>
CCCCCCCCCCCC(=O)NCCCN(C)C

>  <label>
1.0

$$$$

Call for entry OCC1CCC(CO)CC1 (centres undefined) :
0.0

// return assay outcome for CCC1CO1 (centres undefined)
0.0

Record request — test call for O=C1C=CC(=O)N1c1cccc(N2C(=O)C=CC2=O)c1
0.0

---

Assay: BSK_4H_Eotaxin3: BioMAP Diversity Plus: 4H Assay for Eotaxin 3 Biomarker Activity (AID 2283000)
Details: primary human endothelial cells (HUVEC); actives raise or lower the signal
Activity calls are given as the source filed them. The calls were made as follows: active = hit-call score of the fitted dose curve at least 0.9, where 1 is the maximum; inactive = score below 0.9.
measurement_name: AC50

>  <item_smiles>
CC(C)(C)c1ccc(O)c(O)c1

>  <AC50>
7.29 µM (active)

$$$$
>  <item_smiles>
CCCCC=O

>  <AC50>
inactive

$$$$
>  <item_smiles>
OCCN1CN(CCO)CN(CCO)C1

>  <AC50>
30.2 µM (active)

$$$$
>  <item_smiles>
O=C(CCCN1CCC(O)(c2ccc(Cl)cc2)CC1)c1ccc(F)cc1

>  <AC50>
inactive

$$$$
>  <item_smiles>
Oc1cc2ccccc2cc1O

>  <AC50>
inactive

$$$$

Now for another entry.
In one line, give reported AC50 of the entry C=CC(=C)CC/C=C(\C)CCC=C(C)C .
inactive

---

Test: ATG_PXRE_CIS: Attagene CIS-FACTORIAL HepG2 Assay for human Pregnane X Receptor Element (PXRE) (AID 2282957)
Conditions: HepG2 Attagene CIS-FACTORIAL PXRE reporter, mRNA; actives raise or lower the signal
Calls of active or inactive are those of the source. The calls were made as follows: active = hit-call score of the fitted dose curve at least 0.9, where 1 is the maximum; inactive = score below 0.9.
measurement_name: AC50

The cases that follow already have their AC50 on record.
>  <compound>
CCCCc1oc2ccccc2c1C(=O)c1cc(I)c(OCCN(CC)CC)c(I)c1

>  <measurement_name>
AC50

>  <value_reported>
1.44 µM (active)

$$$$
>  <compound>
COC1=CC(=O)C[C@@H](C)[C@]12Oc1c(Cl)c(OC)cc(OC)c1C2=O

>  <measurement_name>
AC50

>  <value_reported>
inactive

$$$$
>  <compound>
Cc1cccc2c1ccc1ccccc12

>  <measurement_name>
AC50

>  <value_reported>
27.4 µM (active)

$$$$
>  <compound>
c1cnc2c(c1)ccc1cccnc12

>  <measurement_name>
AC50

>  <value_reported>
inactive

$$$$
>  <compound>
Oc1cc2ccccc2cc1O

>  <measurement_name>
AC50

>  <value_reported>
inactive

$$$$
>  <compound>
Clc1ccc2c(Cl)ccnc2c1

>  <measurement_name>
AC50

>  <value_reported>
inactive

$$$$
>  <compound>
FC(OC(F)(F)C(F)(F)C(F)(F)F)C(F)(F)F (stereo not given)

>  <measurement_name>
AC50

>  <value_reported>
inactive

$$$$
>  <compound>
C[N+](C)(CCCNS(=O)(=O)CCC(F)(F)C(F)(F)C(F)(F)C(F)(F)C(F)(F)C(F)(F)F)CC(=O)[O-]

>  <measurement_name>
AC50

>  <value_reported>
0.00267 µM (active)

$$$$

Note down AC50 recorded for CCOC=O
inactive

Using known records, supply AC50 for O=C(NCc1ncc(C(F)(F)F)cc1Cl)c1c(Cl)cccc1Cl
0.799 µM (active)

Output measured AC50 for this item: Brc1cc(Br)c(Oc2c(Br)cc(Br)c(Br)c2Br)cc1Br
inactive

State its AC50: c1ccc(CNc2ncnc3c2ncn3C2CCCCO2)cc1 (stereo not given)
4.73 µM (active)

Respond only with AC50 recorded for CCCCCCCCCC=CCC1CC(=O)OC1=O (stereo not given)
inactive

Could you please provide reported AC50 for O=C(O)C(=O)O ? Thanks!
inactive

---

Read-out: Interleukin-6 (IL6), IL6 (gene 3569)
Test: BSK_CASM3C_IL6: BioMAP Diversity Plus: CASM3C Assay for Interleukin-6 (IL6) Biomarker Activity for (AID 2283040)
Conditions: primary human coronary artery smooth muscle cells; actives raise or lower the signal
Activity calls are given as the source filed them. How the source made its calls: active means hit-call score of the fitted dose curve at least 0.9, where 1 is the maximum; inactive means score below 0.9.
Reply using exactly one outcome from active, inactive

>  <item_smiles>
OCC(F)(F)C(F)(F)C(F)(F)C(F)(F)C(F)(F)C(F)(F)C(F)(F)C(F)(F)C(F)(F)C(F)(F)C(F)(F)F

>  <label>
inactive

$$$$
>  <item_smiles>
Cc1[nH]nc2c1N=C(c1ccccc1Cl)c1cc([N+](=O)[O-])ccc1N2

>  <label>
inactive

$$$$
>  <item_smiles>
CCCCc1oc2ccccc2c1C(=O)c1cc(I)c(OCCN(CC)CC)c(I)c1

>  <label>
active

$$$$
>  <item_smiles>
O=P(O)(O)CCC(F)(F)C(F)(F)C(F)(F)C(F)(F)C(F)(F)C(F)(F)C(F)(F)C(F)(F)F

>  <label>
inactive

$$$$

In this assay, the call recorded for Cc1ccc(N=Nc2c(O)ccc3ccccc23)c(C)c1 was what?
inactive

Per the records of this test, what outcome belongs to OCCN1CN(CCO)CN(CCO)C1 ?
inactive

Returns: the outcome recorded for CC1=NN(c2ccccc2)C(=O)C1 in this assay.
inactive

Call for entry CCCCC=O :
inactive

Returns: the outcome recorded for CC(C)(C)c1ccc(O)c(O)c1 in this assay.
inactive

Data origin: PubChem BioAssay (EPA / NIEHS)
